Would you kindly list log10 GI50 for each of these molecules?
# Tested on: Ba/F3 cells expressing EGFR mutations
# assay summary: Cell proliferation assay, Ba/F3 cells expressing EGFR mutations (CellTiter-Glo, 72 hours)
# Format: cell-based
# test settings: Mus musculus, BaF3, 72 h, EGFR DEL19-T790M, CellTiter-Glo, read-out: DEL19-T790M GI50
Scale: log10; quantity: GI50; unit before log: nM

Please review the entries below; each comes with its answer.
CCN1CCOc2c(cnn2C)-c2cc(cn(C)c2=O)C(=O)Nc2nc3ccccc3n2C(C)C1 (stereo not drawn) = 2.99
Cn1ncc2c1OCCN1CC3CCC(C3)(C1)n1c(nc3ccc(N4CCOCC4)cc31)NC(=O)c1cc-2c(=O)n(C)c1 (single isomer, unassigned) [Example A62B] = 0.41
C[C@@H]1CCCOc2c(cnn2C)-c2cc(cn(C)c2=O)C(=O)Nc2nc3ccc(N4CCN(C5COC5)CC4)cc3n2C1 = 0.92

Give log10 GI50 for each listed item.
1. CN1CCN(c2ccc3nc4n(c3c2)CCN(CC(F)(F)F)CCOc2c(cnn2C2CC2)-c2cc(cn(C)c2=O)C(=O)N4)CC1
2. C[C@@H]1CCCOc2c(cnn2C2CC2)-c2cc(cn(C)c2=O)C(=O)Nc2nc3ccc(N4CCN(C)CC4)cc3n2C1
3. C[C@@H]1CCCOc2c(cnn2C)-c2cc(cn(C)c2=O)C(=O)Nc2nc3ccc(N4CCC(N5CCN(C)CC5)CC4)cc3n2C1

Result:
1: 1.52; 2: 1.30; 3: 0.28

---

# Tested on: Ba/F3 cells expressing EGFR mutations
# assay summary: Cell proliferation assay, Ba/F3 cells expressing EGFR mutations (CellTiter-Glo, 72 hours)
# Assay type: cell-based
# test settings: Mus musculus, BaF3, 72 h, EGFR DEL19-T790M, CellTiter-Glo, read-out: DEL19-T790M GI50
Would you kindly list log10 of GI50 for each of these compounds?
Scale: log10; quantity: GI50; unit before log: nM

Cn1ncc2c1OCCN1CC3(CCCC1C3)n1c(nc3ccc(N4CCOCC4)cc31)NC(=O)c1cc-2c(=O)n(C)c1 (centres unmarked) [Example A9] = 2.56

Give log10 of GI50 for each listed item.
1. C[C@@H]1CCCOc2c(cnn2C)-c2cc(cn(C3CC3)c2=O)C(=O)Nc2nc3ccc(N4CCN(C)CC4)cc3n2C1 [Example A15]
2. C[C@@H]1CCCOc2c(cnn2C)-c2cc(cn(C)c2=O)C(=O)Nc2nc3ccc(N4CCN(C(=O)OC(C)(C)C)CC4)cc3n2C1 [Example A54]
3. CN1CCN(c2ccc3nc4n(c3c2)CCN(CC(F)(F)F)CCOc2c(cnn2C)-c2cc(cn(C)c2=O)C(=O)N4)CC1 [Example A3]
4. Cn1ncc2c1OCCN(CC(F)(F)F)CCn1c(nc3ccccc31)NC(=O)c1cc-2c(=O)n(C)c1 [Example A1]
5. CN(C)CCN(C)c1ccc2nc3n(c2c1)CCN(CC(F)F)CCOc1c(cnn1C)-c1cc(cn(C)c1=O)C(=O)N3 [Example A4]

Result:
1: 3.42; 2: 2.18; 3: 2.11; 4: 2.06; 5: 2.90

---

# measurement target: EGFR Exon19Del (Homo sapiens, UniProt P00533, DEL746-750)
# Construct: purchased Carna Bio
# Sequence (P00533 with tags, fused parts or gaps DEL746-750 limits assumed): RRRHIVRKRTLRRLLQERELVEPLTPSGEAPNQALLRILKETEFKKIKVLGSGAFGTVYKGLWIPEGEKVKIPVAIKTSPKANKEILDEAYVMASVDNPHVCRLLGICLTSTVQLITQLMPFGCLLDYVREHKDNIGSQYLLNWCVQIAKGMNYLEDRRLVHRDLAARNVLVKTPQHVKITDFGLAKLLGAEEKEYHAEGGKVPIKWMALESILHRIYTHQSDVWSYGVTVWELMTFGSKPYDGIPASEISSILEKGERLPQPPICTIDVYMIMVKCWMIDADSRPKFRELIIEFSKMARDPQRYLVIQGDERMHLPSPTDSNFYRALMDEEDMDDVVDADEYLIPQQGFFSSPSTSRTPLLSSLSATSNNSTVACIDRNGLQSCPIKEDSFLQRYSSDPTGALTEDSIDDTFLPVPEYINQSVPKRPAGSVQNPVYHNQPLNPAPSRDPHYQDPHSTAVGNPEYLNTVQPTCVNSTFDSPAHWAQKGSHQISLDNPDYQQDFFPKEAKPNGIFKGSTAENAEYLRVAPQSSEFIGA
# assay summary: Inhibition of EGFR Exon19Del biochemical enzymatic activity (HTRF)
# test settings: EGFR Del19, 1 mM ATP, 1 h, room temperature, read-out: IC50 @Del19
# Method: Biological Example 1: Inhibition of EGFR WT and Mutant Biochemical Enzymatic Activity The inhibition potency of compounds against these enzymes was assessed using Homogenous Time Resolved Fluorescence approach (HTRF, CisBio. Cat No. 62TKOPEJ). Inhibitory effects of the compounds were determined by measuring the enzymatic activity of EGFR enzyme phosphorylates 1 μM TK Substrate-biotin in the presence of 1 mM adenosine-5′-triphosphate (ATP) and varying concentrations of the test compound. […]
Entries whose IC50 is below 20 nM take true (1); entries at or above 20 nM take false (0).

Use the examples below as a reference point.
CN(C)C1CCN(c2ccc3nc4n(c3c2)C23CCC(CN(CCOc5c(cnn5C)-c5cc(cn(C)c5=O)C(=O)N4)C2)C3)CC1 (single isomer, unassigned) [Example A64B] = true (1)
CN(C)CCN(C)c1ccc2nc3n(c2c1)C12CCC(CC1)CN(CCOc1c(cnn1C)-c1cc(cn(C)c1=O)C(=O)N3)C2 [Example A124] = true (1)
CN(C)C1CN(c2ccc3nc4n(c3c2)C23CCC(CN(CCOc5c(cnn5C)-c5cc(cn(C)c5=O)C(=O)N4)C2)C3)CC1F (single isomer, unassigned) [Example A84D] = true (1)

Query: Is it true that IC50 reported for CN1CCC2(CN(c3ccc4nc5n(c4c3)C34CCC(CN(CCOc6c(cnn6C)-c6cc(cn(C)c6=O)C(=O)N5)C3)C4)C2)C(F)(F)C1 (single isomer, unassigned) [Example A91A] is less than 20 nM?
Result: false (0)

Query: Is it true that IC50 reported for CCC1CCCOc2c(cnn2C)-c2cc(cn(C)c2=O)C(=O)Nc2nc3ccc(N4CCN(C)CC4)cc3n2C1 (single isomer, unassigned) [Example A16B] is less than 20 nM?
Result: true (1)
